Each item that follows carries a reported solubility at 24 h.
# Assay Notes: physchem
# Assay type: physicochemical
# Test Parameters: simulated gastric fluid, thermodynamic from solid
Write it as a number; the unit µM goes unstated.

These recorded examples may help you get a feel for the data.
Cc1c(-c2ccc(N)nc2)ccn2c(=O)c(C(=O)[O-])cc(C3CC3)c12.[K+] [Example 21 K salt] = 200
Cc1c(-c2ccc3[nH]ncc3c2)ccn2c(=O)c(C(=O)[O-])cc(C3CC3)c12.[K+] [Example 23 K salt] = 8
Cc1c(-c2ccc(O)cc2)ccn2c(=O)c(C(=O)[O-])cc(C3CC3)c12.[K+] [Example 46 K salt] = 7
Cc1c(-c2ccc(N)c(F)c2)ccn2c(=O)c(C(=O)[O-])cc(C3CC3)c12.[K+] [Example 2 K salt] = 21

Prompt: Consider the molecule Cc1c(-c2cc(F)c(N)cc2F)ccn2c(=O)c(C(=O)[O-])cc(C3CC3)c12.[K+] [Example 28 K salt] and give its measured solubility at 24 h.
Response: 12

###

pIC50: −log10 of the molar value.
UniProtKB P11387 data, read-out pIC50
Sequence (P11387 whole entry): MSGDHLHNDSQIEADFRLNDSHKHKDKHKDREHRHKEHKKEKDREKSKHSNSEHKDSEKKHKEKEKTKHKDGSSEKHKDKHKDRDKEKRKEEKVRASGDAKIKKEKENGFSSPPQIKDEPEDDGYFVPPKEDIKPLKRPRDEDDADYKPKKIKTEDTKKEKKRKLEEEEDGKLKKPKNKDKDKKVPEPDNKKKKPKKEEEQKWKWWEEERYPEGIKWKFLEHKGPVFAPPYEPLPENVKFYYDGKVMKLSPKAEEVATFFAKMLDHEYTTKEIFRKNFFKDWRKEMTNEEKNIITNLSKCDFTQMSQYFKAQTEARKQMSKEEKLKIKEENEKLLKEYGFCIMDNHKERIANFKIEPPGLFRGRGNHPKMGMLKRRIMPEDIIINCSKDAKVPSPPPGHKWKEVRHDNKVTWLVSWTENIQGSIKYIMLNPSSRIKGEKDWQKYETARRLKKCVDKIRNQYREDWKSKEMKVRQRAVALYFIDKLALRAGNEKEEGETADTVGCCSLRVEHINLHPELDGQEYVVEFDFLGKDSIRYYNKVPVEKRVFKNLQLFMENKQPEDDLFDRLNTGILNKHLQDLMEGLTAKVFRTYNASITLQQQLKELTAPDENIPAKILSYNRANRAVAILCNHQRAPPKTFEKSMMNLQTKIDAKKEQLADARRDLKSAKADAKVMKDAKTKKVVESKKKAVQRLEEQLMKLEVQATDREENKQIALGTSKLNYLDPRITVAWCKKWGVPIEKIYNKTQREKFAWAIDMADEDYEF

These recorded examples may help you get a feel for the data.
Cc1c(-c2ccc3[nH]ncc3c2)ccn2c(=O)c(C(=O)[O-])cc(C3CC3)c12.[K+] [Example 23 K salt] = < 3.85
Cc1c(-c2cc(F)c(N)cc2F)ccn2c(=O)c(C(=O)[O-])cc(C3CC3)c12.[K+] [Example 28 K salt] = 3.87

# evaluate next
Prompt: Consider the compound O=C(O)c1cn(C2CC2)c2cc(N3CCNCC3)c(F)cc2c1=O [Ciprofloxacin, reference compound] and give its measured pIC50.
Response: < 3.82

###

# Assay Notes: Metabolic stability in liver microsomes +/- S9 fraction (Table 8)
# Assay type: in vitro ADME
# Test Parameters: Liver microsomes, mouse, 1 μM
Mark each entry t if its Mean Parent Remaining sits below 50%, and f for all others.

Cc1c(-c2ccc(O)cc2)ccn2c(=O)c(C(=O)[O-])cc(C3CC3)c12.[K+] [Example 46 K salt] = f
Cc1c(-c2ccc3[nH]ncc3c2)ccn2c(=O)c(C(=O)[O-])cc(C3CC3)c12.[K+] [Example 23 K salt] = t
Cc1c(-c2ccc(N)c(F)c2)ccn2c(=O)c(C(=O)[O-])cc(C3CC3)c12.[K+] [Example 2 K salt] = f
Cc1c(-c2ccc(N)nc2)ccn2c(=O)c(C(=O)[O-])cc(C3CC3)c12.[K+] [Example 21 K salt] = f

Next:
Prompt: A record lists Cc1c(-c2cc(F)c(N)cc2F)ccn2c(=O)c(C(=O)[O-])cc(C3CC3)c12.[K+] [Example 28 K salt] . Is its Mean Parent Remaining below 50%?
Response: t

###

# System: Streptococcus pneumonia (5 strains)
# Assay Notes: MIC range, broader panel of Quotient Bioresearch strains (Table 3)
# Test Parameters: Streptococcus pneumoniae, read-out: MIC Range Low, Streptococcus pneumonia (5 strains)
Each item that follows carries a reported MIC.
Write it as a number; the unit µg/mL goes unstated.

Cc1c(-c2ccc(CN)cc2)ccn2c(=O)c(C(=O)[O-])cc(C3CC3)c12.[K+] [Example 31 K salt] = 0.06
Cc1c(C2=CCNCC2)ccn2c(=O)c(C(=O)O)cc(C3CC3)c12 = 4
Cc1c(-c2ccc(N)nc2)ccn2c(=O)c(C(=O)[O-])cc(C3CC3)c12.[K+] [Example 21 K salt] = 0.06
Cc1c(-c2ccncc2)ccn2c(=O)c(C(=O)[O-])cc(C3CC3)c12.[K+] [Example 16 K salt] = 0.5
Cc1c(-c2ccc(N)c(F)c2)ccn2c(=O)c(C(=O)[O-])cc(C3CC3)c12.[K+] [Example 2 K salt] = 0.06

Prompt: Consider the compound Cc1c(-c2ccc(C(N)=O)cc2)c(F)cn2c(=O)c(C(=O)[O-])cc(C3CC3)c12.[K+] [Example 6 K salt] and give its measured MIC.
Response: 0.25

Prompt: Consider the compound Cc1c(-c2ccc(O)cc2)ccn2c(=O)c(C(=O)[O-])cc(C3CC3)c12.[K+] [Example 46 K salt] and give its measured MIC.
Response: 0.06
